Tested on: C. elegans
Experiment: microbe, parasite or virus in culture
Details: Caenorhabditis elegans, 24 h, read-out: Percentage of motility inhibition 24 h, Table S2, C. elegans SS assay, 110 μM, 24 h, averages of 4 data points
The threshold is inclusive: inhibition at 110 µM of exactly 30% counts as true (1); values below receive false (0).

* CC(C)(C)C(O)(CCc1ccc(Cl)cc1)Cn1cncn1 (centres unmarked) | false (0)
* Cc1cc(C2CCCCC2)n(O)c(=O)c1 | true (1)
* O=C1Cc2ccccc2N1 | false (0)
* CSc1ccc(OCc2ncc([N+](=O)[O-])n2C)cc1 | false (0)
* CC1=C2C(=O)[C@H]3[C@@H](CC=C4C[C@@H](O)CC[C@@]43C)[C@@H]2CC[C@]12O[C@@H]1C[C@H](C)CN[C@H]1[C@H]2C | true (1)
* CC(C)=CCC[C@](C)(O[C@@H]1O[C@H](CO[C@@H]2OC[C@H](O)[C@H](O)[C@H]2O)[C@@H](O)[C@H](O)[C@H]1O)[C@H]1CC[C@]2(C)[C@@H]1[C@H](O)C[C@@H]1[C@@]3(C)CC[C@H](O[C@@H]4O[C@H](CO)[C@@H](O)[C@H](O)[C@H]4O[C@@H]4O[C@H](CO)[C@@H](O)[C@H](O)[C@H]4O)C(C)(C)[C@@H]3CC[C@]12C [Ginsenoside Rb2] | false (0)
* Cc1cccc(N(C)C(=S)Oc2ccc3ccccc3c2)c1 [Tolnaftate] | false (0)
* CC[C@H]1OC(=O)[C@H](C)[C@@H](O[C@H]2C[C@@](C)(OC)[C@@H](O)[C@H](C)O2)[C@H](C)[C@@H](O[C@@H]2O[C@H](C)C[C@H](N(C)C)[C@H]2O)[C@](C)(O)C[C@@H](C)/C(=N\OCOCCOC)[C@H](C)[C@@H](O)[C@]1(C)O | false (0)
